# method notes: recombinant barcode read abundance after kanamycin selection (control-corrected) (log10(CPM+1)); higher = more efficient recombination; sequences stand for … in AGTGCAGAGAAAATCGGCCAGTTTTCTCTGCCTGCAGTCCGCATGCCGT…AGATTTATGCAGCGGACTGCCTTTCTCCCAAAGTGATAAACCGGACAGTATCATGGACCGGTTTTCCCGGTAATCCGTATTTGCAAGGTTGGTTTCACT; site = the 11-nt target
value type: recombinant barcode read abundance (log10)

ordered residues	endpoint result
TCTTAGACTTGGGTTCTAACCTGTTGCCG (site TCTTAGACTCG)	0.232
AGGTCCTCTTGGGTTCTAACCTGTTGCAT (site AGGTCCTCTAT)	2.24
GCGTTTGCTTGGGTTCTAACCTGTTGCCT (site GGGTTTGCTAG)	0.0501
AAGTCCTCTTGGGTTCTAACCTGTTGCTT (site AAGACCTCTAA)	0.0682
TTATGAGCTTGGGTTCTAACCTGTTGCCG (site ATATGAGCTTG)	0.012

====

# method notes: recombinant UMI read abundance after kanamycin selection (control-corrected) (log10(CPM+1)); higher = more efficient recombination; extreme values may be limits of the assay; sequences stand for … in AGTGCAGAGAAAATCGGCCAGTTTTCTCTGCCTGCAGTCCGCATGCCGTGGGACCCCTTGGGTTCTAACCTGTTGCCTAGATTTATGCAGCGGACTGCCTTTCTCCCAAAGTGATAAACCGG…AGGTTGGTTTCACT; site = the 11-nt donor
Listed sequences paired with reported recombinant UMI read abundance (log10)
value type: recombinant UMI read abundance (log10)

ordered residues	value type	endpoint result
TGCTAGGCATGGACCGGTTTTCCCGGTAATCCGTATTTGCT (site TGCTAGGCTAC)	recombinant UMI read abundance (log10)	0.0125
AATTATGCATGGACCGGTTTTCCCGGTAATCCGTATTTGCA (site AATTATGCTTG)	recombinant UMI read abundance (log10)	1.85
CCTAATACATGGACCGGTTTTCCCGGTAATCCGTATTTGAC (site CCTAATACTGA)	recombinant UMI read abundance (log10)	0
GATTACCCATGGACCGGTTTTCCCGGTAATCCGTATTTGCT (site GATTAGCCTAG)	recombinant UMI read abundance (log10)	0
GTTCGAGCATGGACCGGTTTTCCCGGTAATCCGTATTTGGG (site GTTCGAGCTCC)	recombinant UMI read abundance (log10)	0.00765
TATTTCGCATGGACCGGTTTTCCCGGTAATCCGTATTTGTG (site TATTTAGCTCA)	recombinant UMI read abundance (log10)	0.00938
CGATCAACATGGACCGGTTTTCCCGGTAATCCGTATTTGCT (site CGATCACCTAG)	recombinant UMI read abundance (log10)	0
TTAGCTACATGGACCGGTTTTCCCGGTAATCCGTATTTGTG (site TTAGCTGCTCA)	recombinant UMI read abundance (log10)	0.0109
CATGTCACATGGACCGGTTTTCCCGGTAATCCGTATTTGGG (site CATGTCACTCC)	recombinant UMI read abundance (log10)	0.00831
AGTGCGACATGGACCGGTTTTCCCGGTAATCCGTATTTGCA (site AGTGCGACTTG)	recombinant UMI read abundance (log10)	1.38
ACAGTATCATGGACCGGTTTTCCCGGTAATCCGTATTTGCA (site ACAGCAGCTTG)	recombinant UMI read abundance (log10)	0.00322

====

# method notes: recombinant UMI read abundance after kanamycin selection (control-corrected) (log10(CPM+1)); higher = more efficient recombination; extreme values may be limits of the assay; sequences stand for … in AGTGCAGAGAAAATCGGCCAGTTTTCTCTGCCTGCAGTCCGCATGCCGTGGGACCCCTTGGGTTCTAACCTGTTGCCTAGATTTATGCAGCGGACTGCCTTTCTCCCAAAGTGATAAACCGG…AGGTTGGTTTCACT; site = the 11-nt donor
Response key: y means recombinant UMI read abundance (log10) >= 0.02; n means recombinant UMI read abundance (log10) < 0.02.

ordered residues	category label
CTAAGAACATGGACCGGTTTTCCCGGTAATCCGTATTTGAA (site CTAAGAACTTT)	y
GCGAAACCATGGACCGGTTTTCCCGGTAATCCGTATTTGCT (site GCGAAAGCTAG)	n
GTGCATCCATGGACCGGTTTTCCCGGTAATCCGTATTTGCC (site GTGCATCCTGG)	y
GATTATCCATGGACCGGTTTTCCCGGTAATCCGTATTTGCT (site GATTAGCCTAG)	y
GTTTGCACATGGACCGGTTTTCCCGGTAATCCGTATTTGTA (site GTCTGCACTTA)	y
TCCACCGCATGGACCGGTTTTCCCGGTAATCCGTATTTGAG (site TCCACCGCTCA)	y
CTCTACACATGGACCGGTTTTCCCGGTAATCCGTATTTGCC (site CTCTACACTGG)	y
TATATCTCATGGACCGGTTTTCCCGGTAATCCGTATTTGAA (site TATATCTCTTT)	y
CACGGACCATGGACCGGTTTTCCCGGTAATCCGTATTTGTT (site CACGGTCCTAA)	n
TGGGAGGCATGGACCGGTTTTCCCGGTAATCCGTATTTGAC (site TGGGAGGCTGT)	y
CGCCACCCATGGACCGGTTTTCCCGGTAATCCGTATTTGTT (site GGCCACCCTAA)	y
TATTTGGCATGGACCGGTTTTCCCGGTAATCCGTATTTGTA (site TATTTGGCTGA)	n
CGCCGTACATGGACCGGTTTTCCCGGTAATCCGTATTTGGT (site CGCCGTACTAA)	n
CACGTACCATGGACCGGTTTTCCCGGTAATCCGTATTTGCT (site CACGTACCTAG)	n
GGTGTGGCATGGACCGGTTTTCCCGGTAATCCGTATTTGGT (site GGTGTGGCTAC)	y
CTAGAAACATGGACCGGTTTTCCCGGTAATCCGTATTTGCA (site CTCGAAACTTG)	n
GTGCATGCATGGACCGGTTTTCCCGGTAATCCGTATTTGAT (site GTGCATGCTAA)	n
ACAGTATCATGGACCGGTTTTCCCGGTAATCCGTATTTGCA (site ACAGTACCTTG)	n
CAAGTTACATGGACCGGTTTTCCCGGTAATCCGTATTTGGG (site CAAGTCACTCC)	y
CGGGATTCATGGACCGGTTTTCCCGGTAATCCGTATTTGCC (site CGGGACTCTGG)	y
GCAACGCCATGGACCGGTTTTCCCGGTAATCCGTATTTGTA (site GCCACGCCTTA)	y

====

Listed sequences paired with reported recombinant barcode read abundance (log10)
# method notes: recombinant barcode read abundance after kanamycin selection (control-corrected) (log10(CPM+1)); higher = more efficient recombination; sequences stand for … in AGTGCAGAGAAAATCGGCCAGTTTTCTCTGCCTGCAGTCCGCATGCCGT…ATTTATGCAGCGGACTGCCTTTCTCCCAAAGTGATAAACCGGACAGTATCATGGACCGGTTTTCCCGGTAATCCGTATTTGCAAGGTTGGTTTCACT; site = the 11-nt target
value type: recombinant barcode read abundance (log10)

ordered residues	endpoint result
CATATTATATGGGTTCTAACCTGTTGCCTTA [CATATTACTAG_LTGcore_TA_RTGcore_TA] (site CATATTACTAG) (LTG core: TA, RTG core: TA)	0.00689
TTATAAAAATGGGTTCTAACCTGTTGCCTAG [TTATAAACTAG_LTGcore_AA_RTGcore_CT] (site TTATAAACTAG) (LTG core: AA, RTG core: CT)	0.0784
ATGCTTTACTGGGTTCTAACCTGTTGCCTAG [ATGCTTTCTAG_LTGcore_AC_RTGcore_CT] (site ATGCTTTCTAG) (LTG core: AC, RTG core: CT)	0.0722
TCGCGACGATGGGTTCTAACCTGTTGCCGAG [TCGCGACCTCG_LTGcore_GA_RTGcore_CT] (site TCGCGACCTCG) (LTG core: GA, RTG core: CT)	0.241
GGGCGGATATGGGTTCTAACCTGTTGCGGTA [GGGCGGACTCC_LTGcore_TA_RTGcore_TA] (site GGGCGGACTCC) (LTG core: TA, RTG core: TA)	0.0888
AGGCCTCAGTGGGTTCTAACCTGTTGCCTAG [AGGCCTCCTAG_LTGcore_AG_RTGcore_CT] (site AGGCCTCCTAG) (LTG core: AG, RTG core: CT)	0.0227

====

# method notes: recombinant UMI read abundance after kanamycin selection (control-corrected) (log10(CPM+1)); higher = more efficient recombination; extreme values may be limits of the assay; sequences stand for … in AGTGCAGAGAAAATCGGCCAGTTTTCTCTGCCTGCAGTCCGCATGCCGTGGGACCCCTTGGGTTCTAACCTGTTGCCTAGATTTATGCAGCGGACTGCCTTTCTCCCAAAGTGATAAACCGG…AGGTTGGTTTCACT; site = the 11-nt donor
value type: recombinant UMI read abundance (log10)

ordered residues	endpoint result
CCTGAAGCATGGACCGGTTTTCCCGGTAATCCGTATTTGAT (site CCTAAAGCTAT)	0.231
GATCCCGCATGGACCGGTTTTCCCGGTAATCCGTATTTGTC (site GATCCCGCTGA)	0.846
TCTAGTGCATGGACCGGTTTTCCCGGTAATCCGTATTTGGT (site TCTAGTGCTAC)	0.0256
TTTACACCATGGACCGGTTTTCCCGGTAATCCGTATTTGAC (site TTTACACCTGT)	0
CATGAGGCATGGACCGGTTTTCCCGGTAATCCGTATTTGGT (site CATGAGGCTAC)	1.12
CAGGAGTCATGGACCGGTTTTCCCGGTAATCCGTATTTGCC (site CAGGAGTCTGG)	3.4
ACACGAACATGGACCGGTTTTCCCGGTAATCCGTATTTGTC (site ACACGTACTGA)	0
TCCACCCCATGGACCGGTTTTCCCGGTAATCCGTATTTGCG (site TCCACCCCTCG)	0.0148
GACGCCACATGGACCGGTTTTCCCGGTAATCCGTATTTGAA (site GACGCCACTTT)	0.827
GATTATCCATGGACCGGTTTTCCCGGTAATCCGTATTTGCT (site GATAATCCTAG)	0
ATGGAAACATGGACCGGTTTTCCCGGTAATCCGTATTTGCA (site ATGGAAACTTG)	2.32
CCTTAAGCATGGACCGGTTTTCCCGGTAATCCGTATTTGAT (site CCTGAAGCTAT)	0
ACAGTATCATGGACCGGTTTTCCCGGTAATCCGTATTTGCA (site ACAGTAACTTG)	1.55
CTCGGAGCATGGACCGGTTTTCCCGGTAATCCGTATTTGAC (site CTCGGAGCTGT)	2.63
TCCTTTACATGGACCGGTTTTCCCGGTAATCCGTATTTGTT (site TCCTTTACTAA)	0.0163
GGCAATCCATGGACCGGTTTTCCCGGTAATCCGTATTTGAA (site GGCAATCCTAT)	0
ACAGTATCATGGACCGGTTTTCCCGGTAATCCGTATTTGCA (site ACAGTATCTAG)	1.81
CCGTGTACATGGACCGGTTTTCCCGGTAATCCGTATTTGCT (site CCGTGTACTAG)	0.439
GTTAGTACATGGACCGGTTTTCCCGGTAATCCGTATTTGGC (site GTTAGTACTGC)	0.861
CCAAAGGCATGGACCGGTTTTCCCGGTAATCCGTATTTGCC (site CCAAAGGCTGG)	0
TATTTGGCATGGACCGGTTTTCCCGGTAATCCGTATTTGTT (site TATTTGGCTTA)	0
ATCTATACATGGACCGGTTTTCCCGGTAATCCGTATTTGAG (site ATCTATACTAT)	0.478
GGTACGTCATGGACCGGTTTTCCCGGTAATCCGTATTTGTC (site GGTACGTCTCA)	0.0113
CCCTTTTCATGGACCGGTTTTCCCGGTAATCCGTATTTGGG (site CCCTTTTCTCC)	0
ACCTAGGCATGGACCGGTTTTCCCGGTAATCCGTATTTGGG (site ACCTAGGCTCC)	0.0121

Just for reference, the supplement of paper PMC11208160 is where these values come from.
